# System: MNoV^CW3
# EXPERIMENT_SUMMARY: CRISPR screen in BV2-Cas9 cells, sgRNA enrichment after MNoV^CW3 infection
# Type: cell-based, murine norovirus
# RUN_CONDITIONS: MNoV^CW3, MOI 0.05, ten days post-infection
OBSERVABLE: log2 fold enrichment after MNV infection relative to mock infected cells, CW3 MOI 0.05 (log2 fold enrichment)
Number only, in log2 fold enrichment; omit the unit.

See these solved cases before continuing.
# SUBSTANCE, QUANTITATIVE_RESULT
data = [
    ("GCTACTTACCTGGGAGGAAA: sgRNA used in screen, matches CD300lh (listed as DNA, chemistry not given here)", "−5.9"),
    ("CATAGGTCACTGTAAAGGTG: sgRNA used in screen, matches CD300la (listed as DNA, chemistry not given here)", "−7.2"),
]

Form entry - test system: MNoV^CW3; read-out: log2 fold enrichment after MNV infection relative to mock infected cells, CW3 MOI 0.05; substance: CCTGTGATCCAGAAGAGAAA: sgRNA used in screen, matches CD300lf (listed as DNA, chemistry not given here) 9.6

###

# System: MNoV^CW3
# EXPERIMENT_SUMMARY: CRISPR screen in BV2-Cas9 cells, sgRNA enrichment after MNoV^CW3 infection
# Assay type: cell-based, murine norovirus
# RUN_CONDITIONS: MNoV^CW3, MOI 5, ten days post-infection
# Experimental: BV2 cells were transduced with pXPR_101 (Addgene plasmid 52962) and selected with blasticidin for eleven days. Cas9 activity was assessed by transducing parental BV2 or BV2-Cas9 cells with pXPR_011 (Addgene plasmid 59702), expresses eGFP and a sgRNA targeting eGFP at an MOI<1 [1]. Cells were transduced for 2 days and subsequently, selected for five days with puromycin and the frequency of eGFP expression was assessed by flow cytometry. […]
OBSERVABLE: log2 fold enrichment after MNV infection relative to mock infected cells, CW3 MOI 5 (log2 fold enrichment)
# value in log2 fold enrichment; strip the unit string

// solved cases for log2 fold enrichment after MNV infection relative to mock infected cells, CW3 MOI 5 follow
# SUBSTANCE, QUANTITATIVE_RESULT
records = [
    ("ACAGGTCCAGAGGAGGTGAG: sgRNA used in screen, matches CD300ld, CD300lf, CD300lh (listed as DNA, chemistry not given here)", 13.0),
    ("GGAAGAGGATGAGCAGAGCA: sgRNA used in screen, no identical CD300 match marked (listed as DNA, chemistry not given here)", "−6.4"),
    ("GTTACTGTGAACATTGGCCC: sgRNA used in screen, matches CD300lf (listed as DNA, chemistry not given here)", 12.1),
    ("GCAGCAAATCCAAATCTCAG: sgRNA used in screen, matches CD300lb (listed as DNA, chemistry not given here)", "−5.8"),
]

Moving on to another substance below.
Which log2 fold enrichment after MNV infection relative to mock infected cells, CW3 MOI 5 value belongs to CTCCACGTAGGTACACCGCA: sgRNA used in screen, matches CD300lg (listed as DNA, chemistry not given here) ? −5.3

###

# System: MNoV^CW3
# EXPERIMENT_SUMMARY: CRISPR screen in BV2-Cas9 cells, sgRNA enrichment after MNoV^CW3 infection
# Assay type: cell-based, murine norovirus
# RUN_CONDITIONS: MNoV^CW3, MOI 5, ten days post-infection
OBSERVABLE: log2 fold enrichment after MNV infection relative to mock infected cells, CW3 MOI 5 (log2 fold enrichment)
Answer in log2 fold enrichment, number only, no unit symbol.

Answered examples (3):
# SUBSTANCE, QUANTITATIVE_RESULT
measured = [
    ("CATAGGTCACTGTAAAGGTG: sgRNA used in screen, matches CD300la (listed as DNA, chemistry not given here)", "−7.2"),
    ("GAGTGTGTCATGTCGATATG: sgRNA used in screen, matches CD300la (listed as DNA, chemistry not given here)", "−6.2"),
    ("ACGGAAGTGAGAAAGAAAAG: sgRNA used in screen, matches CD300le (listed as DNA, chemistry not given here)", "−6.6"),
]

What does the record list as log2 fold enrichment after MNV infection relative to mock infected cells, CW3 MOI 5 for GCTACTTACCTGGGAGGAAA: sgRNA used in screen, matches CD300lh (listed as DNA, chemistry not given here) ? −5.9

Any idea what its log2 fold enrichment after MNV infection relative to mock infected cells, CW3 MOI 5 is? The substance is CTAGCTACTACTCTGATAAC: sgRNA used in screen, matches CD300lf (listed as DNA, chemistry not given here) 11.0

Given the substance GGTCGTCCCTGATGGACACA: sgRNA used in screen, matches CD300lh (listed as DNA, chemistry not given here) , what is its reported log2 fold enrichment after MNV infection relative to mock infected cells, CW3 MOI 5? 7.8

Reported log2 fold enrichment after MNV infection relative to mock infected cells, CW3 MOI 5 for GGATCCAGTCACAGGTCCAG: sgRNA used in screen, matches CD300lf, CD300lh (listed as DNA, chemistry not given here) : what is it? 12.5

Data provenance: patent US20180252712A1
